I'd be grateful if you could share measured pIC50 for these entries.
Test system: PC3 cells
Assay: XTT assay for cell viability, PC3 cells
Type: cell-based, human
Settings: Homo sapiens, PC-3, cell viability
pIC50: −log10 of the molar value.

Completed entries (count: 5):
* CN(C)C(=O)c1ccc(NC(=O)Nc2ccc(-c3nc(N4CCOCC4)c4cccc(-c5ccc(F)nc5)c4n3)cc2)cc1 [Example 6] | 6.30 to 7.00
* CN(C)[C@@H]1CCN(C(=O)c2ccc(NC(=O)Nc3ccc(-c4nc(N5CCOCC5)c5ncc(-c6cnn(C)c6)cc5n4)cc3F)cc2)C1 [Example 205] | 5.00 to 6.70
* CN1CCN(C(=O)c2ccc(NC(=O)Nc3ccc(-c4nc(N5CCOCC5)c5cc(F)c(-c6cccnc6)cc5n4)cc3F)cc2)CC1 [Example 211] | > 7.00
* CN(C)C(=O)c1ccc(NC(=O)Nc2ccc(-c3nc(N4CCOCC4)c4ccc(-c5ccc(CO)o5)cc4n3)cc2)cc1 [Example 183] | 5.00 to 6.70
* CN(C)C(=O)c1ccc(NC(=O)Nc2ccc(-c3nc(N4CCOCC4)c4ccc(-c5cccnc5F)cc4n3)cc2)cc1F [Example 255] | 5.00 to 6.70

Request: # get_value(readout= pIC50, system= PC3 cells) for NC1CCN(C(=O)c2ccc(NC(=O)Nc3ccc(-c4nc(N5CCOCC5)c5ccc(-c6ccco6)cc5n4)cc3)cc2)C1 (stereo in doubt) [Example 234]
Response: 5.00 to 6.70

###

System: PC3 cells
Assay: XTT assay for cell viability, PC3 cells
Format: cell-based, human
Conditions: Homo sapiens, PC-3, cell viability
I'd be grateful if you could share measured IC50 for these entries.

Completed entries (count: 6):
* CN(C)C(=O)c1ccc(NC(=O)Nc2ccc(-c3nc(N4CCOCC4)c4ccc(-c5cncnc5)cc4n3)cc2)c(F)c1 | 0.201 to 10 µM
* CN(C)C(=O)c1ccc(NC(=O)Nc2ccc(-c3nc(N4CCOCC4)c4ncc(-c5cccnc5F)cc4n3)cc2F)cc1 | 0.201 to 10 µM
* CN(C)C(=O)c1ccc(NC(=O)Nc2ccc(-c3nc(N4CCOCC4)c4ccc(-c5ccc(CO)o5)cc4n3)cc2F)cc1 | 0.201 to 10 µM
* CN(C)C(=O)c1ccc(NC(=O)Nc2ccc(-c3nc(N4CCOCC4)c4ccc(-c5ccco5)cc4n3)cn2)cc1 | < 0.1 µM
* CN(C)C(=O)c1ccc(NC(=O)Nc2ccc(-c3nc(N4CCOCC4)c4ccc(-c5cccnc5F)cc4n3)cc2)cc1 | 0.1 to 0.5 µM
* CN(C)C(=O)c1ccc(NC(=O)Nc2ccc(-c3nc(N4CCOCC4)c4ncc(-c5cnc(N)nc5)cc4n3)cc2F)cc1 | 0.201 to 10 µM

Request: # get_value(readout= IC50, system= PC3 cells) for CN(C)C(=O)c1ccc(NC(=O)Nc2ccc(-c3nc(N4CCOCC4)c4ccc(-c5ccccn5)cc4n3)c(F)c2)cc1
Response: 0.201 to 10 µM

###

Target: PI3Kα (wild-type), P110/P85α (Homo sapiens, UniProt P42336)
Sequence (P42336 whole entry): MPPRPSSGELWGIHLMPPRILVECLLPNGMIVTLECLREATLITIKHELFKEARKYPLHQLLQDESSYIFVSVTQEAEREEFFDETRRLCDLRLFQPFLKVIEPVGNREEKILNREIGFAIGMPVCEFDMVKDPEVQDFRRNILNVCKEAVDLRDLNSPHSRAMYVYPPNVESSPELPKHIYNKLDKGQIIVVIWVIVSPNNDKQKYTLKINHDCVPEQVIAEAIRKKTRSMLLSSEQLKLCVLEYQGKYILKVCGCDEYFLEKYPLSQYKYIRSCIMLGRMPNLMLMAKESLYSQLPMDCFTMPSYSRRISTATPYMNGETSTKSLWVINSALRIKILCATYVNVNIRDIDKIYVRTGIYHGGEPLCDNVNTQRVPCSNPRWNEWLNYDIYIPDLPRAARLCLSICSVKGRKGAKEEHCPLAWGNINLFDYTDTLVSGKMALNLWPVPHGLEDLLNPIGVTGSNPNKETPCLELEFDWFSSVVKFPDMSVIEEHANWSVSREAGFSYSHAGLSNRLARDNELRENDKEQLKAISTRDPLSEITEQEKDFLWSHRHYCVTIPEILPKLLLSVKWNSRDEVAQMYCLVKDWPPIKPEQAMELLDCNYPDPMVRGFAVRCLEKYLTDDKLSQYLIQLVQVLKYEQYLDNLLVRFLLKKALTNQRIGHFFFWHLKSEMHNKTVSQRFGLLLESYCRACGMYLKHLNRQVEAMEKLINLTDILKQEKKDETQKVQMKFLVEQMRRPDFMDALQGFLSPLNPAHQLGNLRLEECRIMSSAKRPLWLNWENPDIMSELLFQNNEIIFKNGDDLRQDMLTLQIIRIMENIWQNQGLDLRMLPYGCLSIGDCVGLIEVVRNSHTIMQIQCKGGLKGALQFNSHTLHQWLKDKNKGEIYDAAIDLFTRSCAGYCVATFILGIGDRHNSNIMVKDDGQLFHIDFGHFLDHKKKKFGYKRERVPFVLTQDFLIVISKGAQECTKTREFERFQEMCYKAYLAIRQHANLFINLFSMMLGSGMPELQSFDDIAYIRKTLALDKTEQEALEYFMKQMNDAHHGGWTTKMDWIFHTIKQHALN
Sequence (P27986 whole entry partner): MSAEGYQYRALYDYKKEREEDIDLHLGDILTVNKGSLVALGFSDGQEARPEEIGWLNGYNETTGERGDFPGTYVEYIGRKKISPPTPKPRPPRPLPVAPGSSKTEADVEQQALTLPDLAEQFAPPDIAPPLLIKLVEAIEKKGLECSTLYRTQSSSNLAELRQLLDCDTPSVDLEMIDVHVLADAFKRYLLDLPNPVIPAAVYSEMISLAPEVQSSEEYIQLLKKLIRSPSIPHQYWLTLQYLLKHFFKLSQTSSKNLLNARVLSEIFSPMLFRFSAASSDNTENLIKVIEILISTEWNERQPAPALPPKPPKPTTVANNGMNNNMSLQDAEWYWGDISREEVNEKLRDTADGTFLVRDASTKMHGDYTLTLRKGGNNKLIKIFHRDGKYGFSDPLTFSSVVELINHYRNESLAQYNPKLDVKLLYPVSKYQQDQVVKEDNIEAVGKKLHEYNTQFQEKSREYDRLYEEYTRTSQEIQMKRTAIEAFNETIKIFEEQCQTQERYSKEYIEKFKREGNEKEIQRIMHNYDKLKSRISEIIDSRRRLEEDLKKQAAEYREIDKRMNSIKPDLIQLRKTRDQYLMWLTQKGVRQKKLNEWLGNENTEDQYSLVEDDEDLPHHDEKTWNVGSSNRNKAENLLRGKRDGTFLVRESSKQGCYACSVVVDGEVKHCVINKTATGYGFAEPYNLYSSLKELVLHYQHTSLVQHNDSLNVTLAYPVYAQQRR
Experiment: PI3 Kinase TR-FRET assay, PI3Kα (wild-type)
pIC50: −log10 of the molar value.
OBSERVED_PROPERTY: pIC50

Completed entries (count: 6):
* CN(C)C(=O)c1ccc(NC(=O)Nc2ccc(-c3nc(N4CCOCC4)c4cc(F)c(-c5cncnc5)cc4n3)cc2)c(F)c1 | 6.70 to 7.30
* CN1CCN(C(=O)c2ccc(NC(=O)Nc3ccc(-c4nc(N5CCOCC5)c5cc(F)c(-c6cccnc6)cc5n4)cc3F)cc2)CC1 | > 7.30
* CN(C)C(=O)c1ccc(NC(=O)Nc2ccc(-c3nc(N4CCOCC4)c4cc(F)c(-c5cncnc5)cc4n3)cc2F)cc1 | > 7.30
* CN(C)C(=O)c1ccc(NC(=O)Nc2ccc(-c3nc(N4CCOCC4)c4ccc(-c5cncnc5)cc4n3)cc2)cc1 | > 7.30
* COc1ccc(-c2ccc3c(N4CCOCC4)nc(-c4ccc(NC(=O)Nc5ccc(C(=O)N(C)C)cc5)cc4F)nc3c2)cn1 | 6.70 to 7.30
* Cc1ccncc1-c1cnc2c(N3CCOCC3)nc(-c3ccc(NC(=O)Nc4ccc(C(=O)N(C)C)cc4)cc3)nc2c1 | > 7.30

We now examine a further compound.
Request: Requested field: pIC50. Item: CN(C)C(=O)c1ccc(NC(=O)Nc2ccc(-c3nc(N4CCOCC4)c4ccc(-c5cncc(F)c5)cc4n3)cc2)cc1
Response: > 7.30
